- measuredTarget: UniProt:Q8ILY1
- Sequence (Q8ILY1 entry or part of it): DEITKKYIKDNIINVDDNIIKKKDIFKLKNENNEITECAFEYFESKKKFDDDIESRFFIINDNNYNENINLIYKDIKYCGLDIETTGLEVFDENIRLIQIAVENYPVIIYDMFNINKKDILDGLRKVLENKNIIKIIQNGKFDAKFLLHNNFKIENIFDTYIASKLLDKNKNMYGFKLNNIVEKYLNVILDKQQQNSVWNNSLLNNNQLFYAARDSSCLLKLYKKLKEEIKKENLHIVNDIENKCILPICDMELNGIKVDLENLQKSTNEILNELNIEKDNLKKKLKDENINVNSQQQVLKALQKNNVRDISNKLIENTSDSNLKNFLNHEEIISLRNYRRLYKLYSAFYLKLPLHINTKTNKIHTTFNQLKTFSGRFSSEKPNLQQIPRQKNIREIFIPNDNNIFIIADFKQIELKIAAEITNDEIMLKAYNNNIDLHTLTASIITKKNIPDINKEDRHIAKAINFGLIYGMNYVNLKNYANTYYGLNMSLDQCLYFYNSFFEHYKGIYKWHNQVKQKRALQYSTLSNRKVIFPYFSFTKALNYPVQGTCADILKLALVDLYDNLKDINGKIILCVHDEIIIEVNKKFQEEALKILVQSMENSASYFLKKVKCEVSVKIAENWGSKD
- measurementNotes: Fluorescence-based high-throughput DNA polymerase assay (molecular beacon), primary screen and dose-response;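 on % inhibition Apol 40': compound concentration given in µM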
- Type: biochemical
- measurementContext: DRC-2; 40'; concentration 5
Recorded % inhibition Apol 40' values for a group of molecules are listed next.

{"columns": ["molecule", "% inhibition Apol 40' / %"],
 "data": [
  ["Cc1ccc(NC(=O)Cn2ccc3c(=O)[nH]ccc32)cc1F [Molecule 48, O=C(Cn1ccc2c1cc[nH]c2=O)Nc1ccc(c(c1)F)C]", 4],
  ["COCC(=O)Nc1c(-c2cccc(F)c2)nc2cc(C)ccn12 [Molecule 44, COCC(=O)Nc1c(nc2n1ccc(c2)C)c1cccc(c1)F]", 27],
  ["NC(=O)c1cc[n+](CC2=C(C(=O)[O-])N3C(=O)[C@@H](NC(=O)[C@@H](c4ccccc4)S(=O)(=O)[O-])[C@H]3SC2)cc1.[Na+] [Molecule 9]", 15],
  ["O=c1cc(-c2ccccc2Cl)oc2c(NS(=O)(=O)c3cc(Cl)cc(Cl)c3O)ccc(O)c12 [KU0104277]", -1],
  ["Cc1ccc(N2NC(=O)/C(=C\\c3ccc(O)c([N+](=O)[O-])c3)C2=O)cc1Cl [KU0058427]", 20],
  ["Cc1ccc(C(=O)/C=C/C=C/C=C/N(C)C)o1 [Molecule 96, CN(/C=C/C=C/C=C/C(=O)c1ccc(o1)C)C]", 26],
  ["Cc1nc(/N=N/c2ccc(C(=O)[O-])cc2)c(COP(=O)([O-])[O-])c(C=O)c1O.[Na+].[Na+].[Na+] [KU0261395]", 40],
  ["O=C(c1c[nH]c2ncccc12)N1CCCC1 [Molecule 63, O=C(c1c[nH]c2c1cccn2)N1CCCC1]", 11],
  ["Oc1cccc2ccc(/C=C/c3ccc4c(c3)OCO4)nc12 [KU0025984]", 25],
  ["CC1(C)CC(=O)C2=C(C1)OC1=C(C(=O)CC(C)(C)C1)C2c1ccc(O)cc1 [KU0194226]", -0.353],
  ["CCCCc1ccc(NC(=O)CSc2nc(O)c(C#N)c(C3CCCCC3)n2)c(C)c1 [Molecule 8]", 5],
  ["Cc1ccccc1NC(=O)Cn1ccc2c(=O)[nH]ccc21 [Molecule 50, O=C(Cn1ccc2c1cc[nH]c2=O)Nc1ccc(cc1)C]", 16],
  ["O=C(NC(C(Cl)Cl)S(=O)(=O)c1ccccc1)c1ccccc1 (stereo not drawn) [KU0045239]", 25],
  ["O=[N+]([O-])c1ccc(/C=C/c2ccc3ccccc3n2)o1 [Molecule 21, O=N(=O)c1ccc(o1)/C=C/c1ccc2c(n1)cccc2]", 51],
  ["O=[N+]([O-])/C=C/c1ccc(-c2ccc(Br)cc2)o1 [Molecule 31, O=N(=O)/C=C/c1ccc(o1)c1ccc(cc1)Br]", 33]
]}

* * *

Recorded DNA Pol values for a group of compounds are listed next.
- measuredTarget: UniProtKB Q8ILY1
- measurementNotes: Fluorescence-based high-throughput DNA polymerase assay (molecular beacon), primary screen and dose-response
- Assay type: biochemical
- measurementContext: "DNA Pol" of the 186 hits list (screen value); 90 min, 10 µM
quantityKind: DNA Pol

{"columns": ["compound", "measuredTarget", "quantityKind", "recordedMeasurement"],
 "data": [
  ["Cc1ccc2c(C(=O)NCCc3cccnc3)cc(NC(=O)C(C)C)cc2n1", "UniProtKB Q8ILY1", "DNA Pol", 22],
  ["O=C(O)CCS(=O)(=O)c1ccc(-c2ccc(S(=O)(=O)CCC(=O)O)cc2)cc1", "UniProtKB Q8ILY1", "DNA Pol", 40],
  ["O=C(Nc1ccc2c(c1)Cc1cc(NC(=O)c3ccco3)ccc1-2)c1ccco1", "UniProtKB Q8ILY1", "DNA Pol", 27],
  ["Cc1ccc(NC(=O)Cn2ccc3c(=O)[nH]ccc32)cc1F [Molecule 48, O=C(Cn1ccc2c1cc[nH]c2=O)Nc1ccc(c(c1)F)C]", "UniProtKB Q8ILY1", "DNA Pol", 27],
  ["O=C1C(=Cc2ccccc2O)Oc2ccc(O)cc21", "UniProtKB Q8ILY1", "DNA Pol", 17],
  ["COc1cccc(C(=O)N2CCc3c(nc4cc(-c5ccccc5)[nH]n4c3=O)C2)c1OC", "UniProtKB Q8ILY1", "DNA Pol", 45],
  ["Cc1ccc(C)n1-c1ccc(C(=O)NNC(=O)c2ccc3nccnc3c2)cc1", "UniProtKB Q8ILY1", "DNA Pol", 84],
  ["CCOC(=O)C1=C2c3cc(OC)c(OC)cc3CC(C)(C)N2C(=O)C1=O", "UniProtKB Q8ILY1", "DNA Pol", 50]
]}
